experiment: AUC (0 to t) in male Sprague-Dawley rat at 100 mg/kg, IG measured at 24 hrs LC-MS/MS analysis; format: ADME, organism-based; set-up: time 24 hrs, dose 100 mg/kg, route ig; details: in vivo, po
measure: AUC(0-t) at 24 h (ng·h/mL)
Numeric only. Scale: ng·h/mL

Enquiry: May I ask what AUC(0-t) at 24 h has been recorded for `C#C[C@]1(CO)O[C@@H](n2cnc3c(N)nc(F)nc32)[C@@H](F)[C@@H]1O` ?
Return: 85800

---

assay: Cmax in Sprague-Dawley rat at 5 mg/kg, iv measured upto 24 hrs by LC-MS/MS analysis; assay type: ADME, organism-based; parameters: time < 24 hrs, dose 5 mg/kg, route iv; conditions: in vivo
measure: Cmax (µg/mL)
Write it as a number; the unit µg/mL goes unstated.

Enquiry: Which Cmax value belongs to `C#C[C@]1(CO)O[C@@H](n2cnc3c(N)nc(F)nc32)[C@@H](F)[C@@H]1O` ?
Return: 10.2
